src = PubChem BioAssay AID1745850

assay: Viability Counterscreen for Confirmatory qHTS for Inhibitors of ATXN expression; conditions: HEK-293 ATXN2-luc cells viability, CellTiter-Fluor, 24 h; also: nearly all actives have a fitted effect of over 50% in size; also: potency is read from the fitted curve at half-maximal effect
Out of some 2,100 compounds screened, about 260 (12%) were called active. Another 58% or so got no clear call; they are omitted. The list shows a part of the results.

MOLECULE | Potency
COC(=O)[C@H]1C[C@H](OC(=O)NC2CC2)[C@@]2(O)CN(S(=O)(=O)c3ccc(C)cc3)CC2[C@H]1C(=O)OC (stereo not given in full) | inactive
COc1ccc(OCCNC(=O)C2(C)CCN2Cc2ccc3ccccc3c2)cc1 (stereo not given) | inactive
O=[N+]([O-])c1c(Nc2ccccn2)cc(Cl)c2nonc12 | 11.2 µM (active)
CN1CCC(N(C)C(=O)c2ccc(Cl)c(S(=O)(=O)N3CCc4ccccc43)c2)CC1 | inactive
Cc1cc(NC(=O)CSc2nccn2-c2cccc(C)c2C)no1 | inactive
